Test: Pharmacokinetics of HLJDD components in rat plasma after oral administration of HLJDD (LC-QqQ-MS, non-compartmental)
Type: in vivo, Sprague-Dawley rats
Settings: normal rats (group B), oral HLJDD extract, crude material 3.5 g/kg, plasma, n = 6
Measurement Kind: Tmax2 (h)

>  <Compound>
COc1c(O[C@@H]2O[C@H](C(=O)O)[C@@H](O)[C@H](O)[C@H]2O)cc(O)c2c(=O)cc(-c3ccccc3)oc12 [wogonoside]

>  <Measurement Kind>
Tmax2

>  <Recorded Value>
4.3

$$$$
>  <Compound>
COc1ccc2cc3[n+](cc2c1OC)CCc1cc2c(cc1-3)OCO2

>  <Measurement Kind>
Tmax2

>  <Recorded Value>
8.0

$$$$
>  <Compound>
COc1c(O[C@@H]2O[C@H](C(=O)O)[C@@H](O)[C@H](O)[C@H]2O)cc2oc(-c3ccccc3)cc(=O)c2c1O [oroxylin A-7-O-glucuronide]

>  <Measurement Kind>
Tmax2

>  <Recorded Value>
4.0

$$$$
>  <Compound>
COc1c(O)cc(O)c2c(=O)cc(-c3ccccc3)oc12

>  <Measurement Kind>
Tmax2

>  <Recorded Value>
4.0

$$$$
>  <Compound>
O=C(O)[C@H]1O[C@@H](Oc2cc3oc(-c4ccccc4)cc(=O)c3c(O)c2O)[C@H](O)[C@@H](O)[C@@H]1O

>  <Measurement Kind>
Tmax2

>  <Recorded Value>
4.3

$$$$
>  <Compound>
COc1c(O)cc2oc(-c3ccccc3)cc(=O)c2c1O

>  <Measurement Kind>
Tmax2

>  <Recorded Value>
4.0

$$$$

###

Test: Pharmacokinetics of HLJDD components in rat plasma after oral administration of HLJDD (LC-QqQ-MS, non-compartmental)
Format: in vivo, Sprague-Dawley rats
Conditions: inflamed rats (group M), oral HLJDD extract, crude material 3.5 g/kg, plasma, n = 6

>  <Compound>
COc1c(O)cc2oc(-c3ccccc3)cc(=O)c2c1O [oroxylin A]

>  <HLλz>
16.3 ± 8.8 h

$$$$
>  <Compound>
COc1c(O[C@@H]2O[C@H](C(=O)O)[C@@H](O)[C@H](O)[C@H]2O)cc(O)c2c(=O)cc(-c3ccccc3)oc12 [wogonoside]

>  <HLλz>
12.2 ± 5.9 h

$$$$
>  <Compound>
COc1ccc2c(c1O)-c1c(O)c(OC)cc3c1[C@H](C2)[N+](C)(C)CC3 [magnolflorine]

>  <HLλz>
4.3 ± 2.2 h

$$$$
>  <Compound>
COC(=O)C1=CO[C@@H](O[C@@H]2O[C@H](CO)[C@@H](O)[C@H](O)[C@H]2O)[C@@H]2C(CO)=CC[C@H]12 [geniposide]

>  <HLλz>
1.6 ± 0.7 h

$$$$
>  <Compound>
O=C(O)[C@H]1O[C@@H](Oc2cc3oc(-c4ccccc4)cc(=O)c3c(O)c2O)[C@H](O)[C@@H](O)[C@@H]1O [baicalin]

>  <HLλz>
4.7 ± 1.1 h

$$$$
>  <Compound>
COc1ccc2cc3[n+](cc2c1OC)CCc1cc2c(cc1-3)OCO2 [berberine]

>  <HLλz>
9.1 ± 2.5 h

$$$$
>  <Compound>
COc1c(O[C@@H]2O[C@H](C(=O)O)[C@@H](O)[C@H](O)[C@H]2O)cc2oc(-c3ccccc3)cc(=O)c2c1O [oroxylin A-7-O-glucuronide]

>  <HLλz>
20.1 ± 6.1 h

$$$$
>  <Compound>
COc1c(O)cc(O)c2c(=O)cc(-c3ccccc3)oc12 [wogonin]

>  <HLλz>
7.1 ± 2.7 h

$$$$

###

Assay: Pharmacokinetics of HLJDD components in rat plasma after oral administration of HLJDD (LC-QqQ-MS, non-compartmental)
Type: in vivo, Sprague-Dawley rats
Conditions: inflamed rats (group M), oral HLJDD extract, crude material 3.5 g/kg, plasma, n = 6
Cmax1 for assorted compounds
Measurement Kind: Cmax1 (ng/mL)

>  <Compound>
COC(=O)C1=CO[C@@H](O[C@@H]2O[C@H](CO)[C@@H](O)[C@H](O)[C@H]2O)[C@@H]2C(CO)=CC[C@H]12 [geniposide]

>  <Value Unit>
ng/mL

>  <Recorded Value>
223.2

$$$$
>  <Compound>
COc1ccc2c(c1O)-c1c(O)c(OC)cc3c1[C@H](C2)[N+](C)(C)CC3

>  <Value Unit>
ng/mL

>  <Recorded Value>
6.0

$$$$
>  <Compound>
COc1c(O[C@@H]2O[C@H](C(=O)O)[C@@H](O)[C@H](O)[C@H]2O)cc2oc(-c3ccccc3)cc(=O)c2c1O [oroxylin A-7-O-glucuronide]

>  <Value Unit>
ng/mL

>  <Recorded Value>
108.7

$$$$
>  <Compound>
COc1c(O)cc2oc(-c3ccccc3)cc(=O)c2c1O

>  <Value Unit>
ng/mL

>  <Recorded Value>
2.5

$$$$
>  <Compound>
COc1c(O)cc(O)c2c(=O)cc(-c3ccccc3)oc12

>  <Value Unit>
ng/mL

>  <Recorded Value>
3.3

$$$$
>  <Compound>
COc1c(O[C@@H]2O[C@H](C(=O)O)[C@@H](O)[C@H](O)[C@H]2O)cc(O)c2c(=O)cc(-c3ccccc3)oc12 [wogonoside]

>  <Value Unit>
ng/mL

>  <Recorded Value>
571.9

$$$$
>  <Compound>
O=C(O)[C@H]1O[C@@H](Oc2cc3oc(-c4ccccc4)cc(=O)c3c(O)c2O)[C@H](O)[C@@H](O)[C@@H]1O

>  <Value Unit>
ng/mL

>  <Recorded Value>
2420.9

$$$$
>  <Compound>
COc1ccc2cc3[n+](cc2c1OC)CCc1cc2c(cc1-3)OCO2

>  <Value Unit>
ng/mL

>  <Recorded Value>
0.5

$$$$

###

Experiment: Pharmacokinetics of HLJDD components in rat plasma after oral administration of HLJDD (LC-QqQ-MS, non-compartmental)
Assay type: in vivo, Sprague-Dawley rats
Settings: normal rats (group B), oral HLJDD extract, crude material 3.5 g/kg, plasma, n = 6
Procedure: The rats were acclimatized to the facilities for 5 days and screened via the continuous determination of the rectal temperature for two days. […] The control group G1 was injected with the same volume of physiological saline. […] Pharmacokinetic parameters of the determined compounds were processed by the non-compartmental method using Phoenix Winnonlin software (Pharsight Corporation, USA). […] The mean residence time (MRT) was determined as AUMC/AUC. […]
Measurement Kind: AUC%Extrap

>  <Compound>
COc1c(O[C@@H]2O[C@H](C(=O)O)[C@@H](O)[C@H](O)[C@H]2O)cc(O)c2c(=O)cc(-c3ccccc3)oc12 [wogonoside]

>  <Measurement Kind>
AUC%Extrap

>  <Recorded Value>
9.6±6.6%

$$$$
>  <Compound>
COc1c(O[C@@H]2O[C@H](C(=O)O)[C@@H](O)[C@H](O)[C@H]2O)cc2oc(-c3ccccc3)cc(=O)c2c1O [oroxylin A-7-O-glucuronide]

>  <Measurement Kind>
AUC%Extrap

>  <Recorded Value>
10.3±6.8%

$$$$
>  <Compound>
COc1ccc2cc3[n+](cc2c1OC)CCc1cc2c(cc1-3)OCO2

>  <Measurement Kind>
AUC%Extrap

>  <Recorded Value>
25.9±15.5%

$$$$
>  <Compound>
COc1c(O)cc2oc(-c3ccccc3)cc(=O)c2c1O

>  <Measurement Kind>
AUC%Extrap

>  <Recorded Value>
5.3±3.4%

$$$$
>  <Compound>
O=C(O)[C@H]1O[C@@H](Oc2cc3oc(-c4ccccc4)cc(=O)c3c(O)c2O)[C@H](O)[C@@H](O)[C@@H]1O

>  <Measurement Kind>
AUC%Extrap

>  <Recorded Value>
2.9±2.3%

$$$$
>  <Compound>
COC(=O)C1=CO[C@@H](O[C@@H]2O[C@H](CO)[C@@H](O)[C@H](O)[C@H]2O)[C@@H]2C(CO)=CC[C@H]12 [geniposide]

>  <Measurement Kind>
AUC%Extrap

>  <Recorded Value>
11.5±1.5%

$$$$
>  <Compound>
COc1ccc2c(c1O)-c1c(O)c(OC)cc3c1[C@H](C2)[N+](C)(C)CC3

>  <Measurement Kind>
AUC%Extrap

>  <Recorded Value>
6.2±2.4%

$$$$
>  <Compound>
COc1c(O)cc(O)c2c(=O)cc(-c3ccccc3)oc12

>  <Measurement Kind>
AUC%Extrap

>  <Recorded Value>
2.7±2.3%

$$$$

###

Assay: Pharmacokinetics of HLJDD components in rat plasma after oral administration of HLJDD (LC-QqQ-MS, non-compartmental)
Type: in vivo, Sprague-Dawley rats
Details: male, Sprague-Dawley, rat, plasma, po, 3.5 g/kg, normal rats (group B), oral HLJDD extract, crude material 3.5 g/kg, plasma, n = 6
Measurement Kind: MRT last

>  <Record Smiles>
COc1c(O)cc2oc(-c3ccccc3)cc(=O)c2c1O

>  <Measurement Kind>
MRT last

>  <Recorded Value>
3 h

$$$$
>  <Record Smiles>
COc1c(O)cc(O)c2c(=O)cc(-c3ccccc3)oc12

>  <Measurement Kind>
MRT last

>  <Recorded Value>
4.3 h

$$$$
>  <Record Smiles>
COc1ccc2cc3[n+](cc2c1OC)CCc1cc2c(cc1-3)OCO2

>  <Measurement Kind>
MRT last

>  <Recorded Value>
5.7 h

$$$$
>  <Record Smiles>
O=C(O)[C@H]1O[C@@H](Oc2cc3oc(-c4ccccc4)cc(=O)c3c(O)c2O)[C@H](O)[C@@H](O)[C@@H]1O

>  <Measurement Kind>
MRT last

>  <Recorded Value>
4.3 h

$$$$
